OBSERVABLE: AC50

Prompt: Recall the reported AC50 of CCCCSc1nc(C)cc(C)c1S(=O)(=O)c1ccccc1C on Cytochrome P450 2C9 (Homo sapiens, UniProt P11712) and write it down.
Sequence (P11712 whole entry): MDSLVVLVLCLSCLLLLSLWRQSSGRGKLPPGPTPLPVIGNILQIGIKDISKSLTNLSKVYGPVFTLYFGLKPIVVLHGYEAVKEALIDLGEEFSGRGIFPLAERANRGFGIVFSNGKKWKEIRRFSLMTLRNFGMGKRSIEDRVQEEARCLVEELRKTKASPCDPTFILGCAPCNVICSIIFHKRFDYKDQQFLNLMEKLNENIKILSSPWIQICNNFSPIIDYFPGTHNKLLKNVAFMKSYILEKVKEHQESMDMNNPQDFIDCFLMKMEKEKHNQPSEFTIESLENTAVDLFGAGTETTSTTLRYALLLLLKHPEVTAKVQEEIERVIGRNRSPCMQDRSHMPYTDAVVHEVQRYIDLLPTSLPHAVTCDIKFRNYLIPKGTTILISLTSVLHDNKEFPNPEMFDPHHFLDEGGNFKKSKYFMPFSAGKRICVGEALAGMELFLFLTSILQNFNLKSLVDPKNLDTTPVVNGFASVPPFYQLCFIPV
Response: 10 µM (inconclusive)

Prompt: Recall the reported AC50 of COc1ccc2c(c1)-c1ccccc1S(=O)(=O)N2C(C)=O on Cytochrome P450 2C9 (Homo sapiens, UniProt P11712) and write it down.
Response: 12.6 µM (inconclusive)

Prompt: Recall the reported AC50 of O=C(Oc1cccc(Br)c1)c1cccnc1 on Cytochrome P450 2C9 (Homo sapiens, UniProt P11712) and write it down.
Response: 39.8 µM (inconclusive)

Prompt: Recall the reported AC50 of COC(=O)c1[nH]c2cc(OC)ccc2c1NC(=O)CCN1CCSCC1 on Cytochrome P450 2C9 (Homo sapiens, UniProt P11712) and write it down.
Response: 22.4 µM (inconclusive)

Prompt: Recall the reported AC50 of Cn1cccc1C(=O)N1CCC[C@@]2(CCN(C(c3ccccc3)c3ccccc3)C2)C1 on Cytochrome P450 2C9 (Homo sapiens, UniProt P11712) and write it down.
Response: 39.8 µM (inconclusive)

Prompt: Recall the reported AC50 of CCCN(CCO)Cc1ccc(F)c(Br)c1 on Cytochrome P450 2C9 (Homo sapiens, UniProt P11712) and write it down.
Response: 0.126 µM (inconclusive)

Prompt: Recall the reported AC50 of CNCCCCCCCCSc1nc(C(C)C)ccc1C(=O)c1cccs1 on Cytochrome P450 2C9 (Homo sapiens, UniProt P11712) and write it down.
Response: 25.1 µM (inconclusive)

Prompt: Recall the reported AC50 of CC1=Nc2ccccc2/C1=C\c1nc(-c2ccc(C(F)(F)F)cc2)oc1O on Cytochrome P450 2C9 (Homo sapiens, UniProt P11712) and write it down.
Response: 12.6 µM (inconclusive)

Prompt: Recall the reported AC50 of COc1ccc(CNc2nc(-c3ccc(C(=O)N(C)C)cc3)nc3ccccc23)c(OC)c1 on Cytochrome P450 2C9 (Homo sapiens, UniProt P11712) and write it down.
Response: 1 µM (inconclusive)

Prompt: Recall the reported AC50 of CCCn1c(=O)c2[nH]c(-c3ccccc3)nc2n(CCC)c1=O on Cytochrome P450 2C9 (Homo sapiens, UniProt P11712) and write it down.
Response: 1.58 µM (inconclusive)

Prompt: Recall the reported AC50 of O=C(c1cccc(F)c1)N1CCC2(CC1)CCN(C(c1ccccc1)c1ccccc1)CC2 on Cytochrome P450 2C9 (Homo sapiens, UniProt P11712) and write it down.
Response: 39.8 µM (inconclusive)
